growth overview
# System: OVCAR-3 ovarian
# method_summary: NCI-60 one-dose screen, 48 h (100 = growth as untreated, 0 = no growth, -100 = all killed)
# condition_description: 10 µM
Compounds without any hit were thinned out: in the full panel of roughly 83,000, 20% have a hit.

compound | measurement_unit | growth
CC(=O)OC1CC2C(C)(C)CCC[C@]2(C)C2=C1C(O)=C(C(C)C)C(=O)C2=O (stereo not given in full) | % | -54
COc1ccc(CCN2CCC(Nc3nc4ccccc4n3Cc3ccc(F)cc3)CC2)cc1 | % | 28.3
O=[N+]([O-])c1ccc(/C(=C/c2ccccc2)[n+]2ccccc2)cc1 | % | 127
CC(=O)OC/C=C(/C)C[P+](c1ccccc1)(c1ccccc1)c1ccccc1 | % | 62.9
CS(=O)(=O)c1nccc(-c2c(-c3ccc(OCCc4ccccc4)cc3)nc3sccn23)n1 | % | 104

====

# Test system: A498 renal
# method_summary: NCI-60 one-dose screen, 48 h (100 = growth as untreated, 0 = no growth, -100 = all killed)
# condition_description: 10 µM
About 83,000 compounds went through this panel and 20% of them were active in at least one assay; those are over-represented in the sample as a whole.

smiles_data | growth, %
COc1ccc2cc(-c3nc4ccccc4s3)c(Cl)nc2c1OC | 93.1
O=C(CCCCC(=O)Oc1c(Cl)cc(Cl)cc1[N+](=O)[O-])Oc1c(Cl)cc(Cl)cc1[N+](=O)[O-] | 114
CC(=O)N[C@H](C(=O)N[C@@H](CCCNC(=N)N)C(=O)N[C@@H](CCCCN)C(=O)N[C@@H](CCCNC(=N)N)C(=O)N[C@]1(C)CCCCCC/C=C\CCC[C@@](C)(C(=O)N[C@@H](CCCNC(=N)N)C(=O)N[C@@H](CCC(=O)O)C(=O)N[C@@H](CC(C)C)C(=O)N[C@H](C(=O)N[C@@H](CCC(=O)O)C(N)=O)C(C)C)NC(=O)[C@H](CCC(N)=O)NC(=O)[C@H](CC(C)C)NC(=O)[C@H](CC(C)C)NC(=O)[C@H](CCCNC(=N)N)NC(=O)[C@H](CCCNC(=N)N)NC(=O)[C@H](CC(C)C)NC1=O)C(C)C | 1.28
Oc1ccc(/C=N/N=C2c3ccccc3-c3ccccc32)c(O)c1 | 95.6
COc1cc(-c2nn(-c3cccc(NC(=O)NCCNS(=O)(=O)c4ccc(Cl)cc4)c3)cc2-c2ccncc2)ccc1Cl | -10.5
CCCCC1(O)CCCCC1 | 115

====

# Test system: OVCAR-5 ovarian
# method_summary: NCI-60 one-dose screen, 48 h (100 = growth as untreated, 0 = no growth, -100 = all killed)
# condition_description: 10 µM
Compounds without any hit were thinned out: in the full panel of roughly 83,000, 20% have a hit.
growth under 90% gets YES, anything at or over 90% gets NO.

molecule | assigned_label
CCOC(=O)C(C)(c1ccccc1)c1ccccc1 | NO
COc1cc(-c2ccc[nH]2)[nH]c1/C=C1\N=C(C)C(C(=O)NC(C)C)=C1C | YES
CCCCCC(=O)O[C@]1(C(C)=O)CCC2C3CCC4=CC(=O)CC[C@]4(C)C3CC[C@@]21C (stereo not given in full) | YES
CC1C(=NC(=O)c2cnccn2)C(C)C(c2ccc(Cl)cc2)NC1c1ccncc1 (stereo not given) | NO
O=C(COc1cccc(/C=C2\CSc3ccccc3C2=O)c1)c1ccc(Cl)cc1 | YES
COc1cc2c3c(n(C4CCNCC4)c(=O)c2cc1OC)-c1cc2c(cc1C3=O)OCO2 | YES
O=C(N/N=C/c1ccc(Cl)cc1)c1ccc(Cc2n[nH]c(=O)c3cccnc23)cc1 | NO
O=C(Nc1nc(-c2ccccc2)nc2c1sc(=S)n2-c1ccccc1)C(F)(F)F | NO
CC(C)(C)OC(=O)N1CCc2c(sc3ncnc(N/N=C/c4ccc(Br)cc4)c23)C1 | YES
COc1cc(/C=C2\CCCC3C2=Nc2ccccc2NC3c2cc(OC)c(OC)c(OC)c2)cc(OC)c1OC (stereo not given) | YES
COc1ccccc1-n1c(-c2csc(NC(C)=O)n2)n[nH]c1=S | NO
Oc1ccc(/C=N/N=C2c3ccccc3-c3ccccc32)c(O)c1 | YES
CC(CN(C)C)Oc1ccccc1NC1=C(Cl)C(=O)C(Nc2ccccc2OC(C)CN(C)C)=C(Cl)C1=O (stereo not given) | YES
O=c1[nH]c(=O)n(C2C[C@H](O)[C@@H](CO)O2)cc1C(F)(F)F (stereo not given in full) | NO
COc1cc2nc(SCC(=O)Nc3cc(OC)c(OC)c(OC)c3)n(Cc3ccccc3)c(=O)c2cc1OC | NO
CNC(=O)c1cc(Oc2ccc3c(c2)sc2nc(-c4ccc(N)cc4)cn23)ccn1 | YES
Oc1ccc(-c2[nH]c3ccccc3c2-c2nc3ccccc3o2)cc1 | YES
CCCN1CN2C(=O)N3CN(CCC)CN4C(=S)N(C1)C2C34 (stereo not given) | NO
COC(=O)C1OC1c1cc([N+](=O)[O-])ccc1OC (stereo not given) | NO

Values were extracted from PubChem BioAssay (NCI).
